- Test system: Pseudamonas aeruginosa
- test_name: Contact germicidal screen, Pseudamonas aeruginosa ATCC No. 14502
- Assay type: cell-based
- condition_notes: 300 PPM with 50% Triton X100; 0.1M NaOAc pH 4.6
- Protocol: The organisms used in the contact germicidal screen are all maintained as stock cultures on nutrient agar […] 4° C. They are transferred and biochemically diagnosed monthly. The five organisms used are: The media used are: […] […] After two hours of incubation, the absorbance of the culture at 650 nm is determined and diluted with nutrient broth to 1×10^7 colony forming units per ml (using a previous determined standard curve: colony forming units/ml vs. absorbance at 650). […]
Provide the recorded Sterilization Time (summary) for the entries that follow.
Could you give me the number in min? Just the number is fine.

query: Looking for the measured Sterilization Time (summary) of CC(C)(CCC(=O)O)N(Cl)Cl , can you help?
result: 2.5

query: Using the record for CC(C)(COC(=O)CCCC(=O)O)N(Cl)Cl , report its Sterilization Time (summary).
result: 2.5

query: Which Sterilization Time (summary) is listed for CC(C)(COC(=O)CCC(=O)O)N(Cl)Cl ?
result: 2.5

query: Sample CC(C)(CC(=O)O)N(Cl)Cl — what was its Sterilization Time (summary)?
result: 0.5

====

- System: Microsporum canis
- test_name: Contact fungicidal screen, Microsporum canis
- Type: cell-based
- condition_notes: 100 PPM; 0.1M NaOAc pH 4.6
endpoint: Sterilization Time
# answer = value followed by unit

query: Lab note: need Sterilization Time with Microsporum canis for entry CC(C)(CCCCC(=O)O)N(Cl)Cl , please look it up.
result: 2.5 min

query: Give the reported Sterilization Time for CC(C)(COC(=O)CCCC(=O)O)N(Cl)Cl (system: Microsporum canis).
result: 5.0 min

query: Record lookup: for Microsporum canis, what Sterilization Time belongs to CC(C)(CCC(=O)O)N(Cl)Cl ?
result: 5.0 min

query: Item: CC(C)(COC(=O)CCC(=O)O)N(Cl)Cl Test system: Microsporum canis Read-out: Sterilization Time Value: ?
result: 15.0 min

query: Form entry - test system: Microsporum canis; read-out: Sterilization Time; compound: CC(C)(CC(=O)O)N(Cl)Cl
result: 10.0 min

====

Can you tell me Sterilization Time for the items I'm about to list?
- Tested on: Trychophyton mentagrophytes
- test_name: Contact fungicidal screen, Trychophyton mentagrophytes
- Type: cell-based
- condition_notes: 100 PPM; 0.1M NaOAc pH 4.6
Write the value in min as a bare number.

query: Bench note: what Sterilization Time did CC(C)(COC(=O)CCC(=O)O)N(Cl)Cl show?
result: 2.5

query: Value lookup for Sterilization Time; key = CC(C)(COC(=O)CCCC(=O)O)N(Cl)Cl
result: 2.5

query: Fill blank: measured Sterilization Time of the compound CC(C)(CCC(=O)O)N(Cl)Cl is ____.
result: 0.5

query: Entry under review: CC(C)(CC(=O)O)N(Cl)Cl . Reported Sterilization Time?
result: 0.5

====

- Tested on: Salmonella typhimurium
- test_name: Contact germicidal screen, Salmonella typhimurium ATCC No. 13311
- Type: cell-based
- condition_notes: 10 PPM; 0.1M NaOAc pH 4.6
Kindly state Sterilization Time (summary) for each of the entries shown.
Unit min implied. Number only.

query: For the compound CC(C)(CCC(=O)O)N(Cl)Cl , what Sterilization Time (summary) is on record?
result: 2.5

query: // Sterilization Time (summary) lookup, key: CC(C)(COC(=O)CCC(=O)O)N(Cl)Cl
result: 2.5

query: GET /values?readout=Sterilization Time (summary)&item= CC(C)(CC(=O)O)N(Cl)Cl
result: 0.5

query: Need Sterilization Time (summary), item CC(C)(COC(=O)CCCC(=O)O)N(Cl)Cl
result: 2.5
